- Test system: FOXO3
- assay.summary: qPCR analysis of FOXO3-regulated genes
- Assay type: cell-based, human
- condition.context: Homo sapiens; WI-38 cells, 10 μM, 24 hrs, n=4, qPCR normalized by B2M; read-out: DDB1 Normalized fold change
measure: fold induction at 10 µM
Just the number.

Bench note: what fold induction at 10 µM did `CC(C)(C)c1ccc(OCC(=O)Nc2ccc3c4c(cccc24)C(=O)NC3=O)cc1` show? 1.04

Reported fold induction at 10 µM, compound `O=C(NCc1cccnc1)/C(=C\c1cccc(Oc2ccccc2)c1)S(=O)(=O)c1ccccc1` : ____ 0.979

Item `COc1cccc(/C=C2\CN(C)C/C(=C\c3cccc(OC)c3OC)C2=O)c1OC` has what recorded fold induction at 10 µM? 1.26

Give the measured fold induction at 10 µM of `O=C(c1ccc([N+](=O)[O-])o1)N1CCc2ccccc21` . 1.27

// returns reported fold induction at 10 µM for input `COc1ccc(/C=C2\SC(=N)N(c3nccs3)C2=O)cc1` 1.45

Requested field: fold induction at 10 µM. Item: `COc1ccc(C(=O)/C=C/c2cccc(Cl)c2)c(OC)c1` 1.51

Look up fold induction at 10 µM for this compound: `CCCN1C/C(=C\c2ccc(F)cc2)C(=O)/C(=C/c2ccc(F)cc2)C1` 1.17

I would be grateful if you could share the reported fold induction at 10 µM for `Cc1cc(N)n(-c2ccccc2C(=O)O)n1` . 1.05

Fill blank: measured fold induction at 10 µM of the compound `N=C1S/C(=C\c2cn(-c3ccccc3)nc2-c2cccs2)C(=O)N1c1nccs1` is ____. 1.22

Quick one: fold induction at 10 µM of `Oc1ncnc2sc3c(c12)CCC3` ? 1.08

###

- Test system: NRF2
- assay.summary: qPCR analysis of NRF2-regulated genes
- Type: cell-based, human
- condition.context: Homo sapiens; 10 μM, 24 hrs, WI-38 cells, qPCR, normalized to B2M, n = 4; read-out: GCLC expression, normalized fold change (NRF2-regulated gene)
measure: fold induction at 10 µM
Returns: the value as a bare number; no unit string appended.

Need fold induction at 10 µM of Cc1cc(C)c(C(=O)/C=C/c2ccccc2F)c(O)n1 [O18] , thanks. 2.1

Entry COc1cccc(/C=C2\CN(C)C/C(=C\c3cccc(OC)c3OC)C2=O)c1OC [O23] : reported fold induction at 10 µM = ? 0.67

Any idea what its fold induction at 10 µM is? The compound is O=C(NCc1cccnc1)/C(=C\c1cccc(Oc2ccccc2)c1)S(=O)(=O)c1ccccc1 [Gr-7A] 0.6

Give the measured fold induction at 10 µM of Cc1ccc(NC(=O)c2ccc([N+](=O)[O-])o2)cc1C [Gr-1F] . 1.62

Item CCc1ccccc1NC(=O)c1ccc([N+](=O)[O-])o1 [Gr-1C] has what recorded fold induction at 10 µM? 1.82

Recorded fold induction at 10 µM for O=C(NCc1cccnc1)/C(=C/c1ccc(-c2ccc(Cl)cc2)o1)S(=O)(=O)c1ccccc1 [Gr-7C] , please? 2.27

###

- System: phosphorylated γH2A.X and TP53BP1
- assay.summary: DNA damage marker analysis (immuno-staining)
- condition.context: Homo sapiens, WI-38, 24 h, read-out: Experiment 2, TP53BP1-P DNA damage foci staining (no H2O2 stress treatment), at 10 uM
measure: activity at 10 µM (%)
Give just the number in %; leave the unit off.

Could you share which activity at 10 µM value was measured for COc1ccc(C(=O)/C=C/c2ccccc2Br)c(OC)c1 [Gr-4B] ? 118

Entry under review: CC(C)(C)c1ccc(OCC(=O)Nc2ccc3c4c(cccc24)C(=O)NC3=O)cc1 [O22] . Reported activity at 10 µM? 154

Given O=C(NCc1cccnc1)/C(=C/c1ccc(-c2ccc(Cl)cc2)o1)S(=O)(=O)c1ccccc1 [Gr-7C] , state its recorded activity at 10 µM. 196

Looking for the measured activity at 10 µM of O=C(Nc1cccc(C(F)(F)F)c1)c1ccc([N+](=O)[O-])o1 [Gr-1E] , can you help? 289

Look up activity at 10 µM for this compound: O=C(Nc1cc(C(F)(F)F)ccc1Cl)c1ccc([N+](=O)[O-])o1 [Gr-1B] 211

GET /values?readout=activity at 10 µM&item= O=C(c1ccc([N+](=O)[O-])o1)N1CCc2ccccc21 [O13] 238

Just for reference, patent US11413278B2 is where these values come from.
